# credit: the supplement of paper PMC9170038

- System: K4 kissing-loop RNA reporter;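 also: bound reporter read as fluorescence of individual clusters on recovered sequencing chips by microscopy, with normalized cluster intensities fitted with a binding model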
- test-summary: apparent KD of K4 kissing-loop reporter; higher = weaker reporter binding
- stated-conditions: Eterna round: R107; input ligand: tryptophan 2.4 mM
measure: apparent KD of K4 kissing-loop reporter (nM)

[[record]]
sequence = "AUUUUUUUAUCAGGAUAUUAGUGAUGGUUGUUUUUGUUAGUGAUGUUGAUAUUUGUUUUAUGUAUUUAAGAAGGGAUUGAGAUGU [zbbzmullin]"
result = 49.7

[[record]]
sequence = "GACUCUCUCGUCAGGAAGACGCACUCAGCCAAGGAUAUUAUGUUUUUAAGAAGGUGGACUUAUGCCAGUGAUGUUGGCAGAUACG [theeternabot_sameState_KL_FMN_A_29]"
result = 57.1

[[record]]
sequence = "UGUUUUUACUGAAGGAGCGGCAAUUGAUACGUAGAUAUAGUGAUGUUAUAUAAGAUAGAGAGCCAGGUAGGUCGCAGAAUGUAUC [ExArgB.aC]"
result = 231

[[record]]
sequence = "AAUGUACAGGGAAGGAGCGUAGUCCAGUGAUGUUGGAAUUAAAUACCAGUGAUGUUGGUUAUACAGGUAGGUCGCCCUAAAGUGC [KL-XARG-B20]"
result = 73.2

[[record]]
sequence = "UGAUACCAGACUGAUACCAGCAAGUGAUGUUUGUUGAUCAAAAGCAGUCAAAGACUGCUUUGCCCUUGGCAGCAGUCUGGUAUCU [#10 K4 Theophylline B Exclusion]"
result = 141

[[record]]
sequence = "AGCCGAAAGGCGAGUGCUGUCACUCCGGAAGGAGCGGCGAAAACGCCAGGUAGGUCGCCGGAGUGAUGUUCCGGUGCAGCACUCA [Omei KL Arginine A Exc B v2]"
result = 492


* * *

- System: MS2 coat protein
- test-summary: apparent KD of MS2 coat protein, switch ON state; designed switch direction (-1 OFF switch, 1 ON switch): 1; higher = weaker reporter binding
- stated-conditions: FMN input: 0 or 200 uM; Eterna round: R93 (includes R88 designs)
Values of apparent KD of MS2 coat protein greater than or equal to 20 nM map to Fulfilled; values below map to Not fulfilled.

[[record]]
sequence = "AAAUAAAUGACUCAGGAUAUAUCAUAGAAUACAUGAGGAUCACCCAUGUUUUAAUAACAUGUUUGGUAGAAGGGAGUCAAUAAAU [LROPPY Same State 2 - v05_deltaG=1.86]"
group_label = "Fulfilled"

[[record]]
sequence = "AUUAAACAUGAGGAUCACCCAUGUGGCAAAAGCACAGGAUAUAGGAGUCCGAGCAGACAACUAGAAGGGUGGAAAA [Rixelexe]"
group_label = "Fulfilled"

[[record]]
sequence = "AGGAGACAUGAGGAUCACCCAUGUGAGAAGAGGCGAGGAUAUCGAAAGAAAGAAGAGAAACGAGAAGGCGCGAGCC [salish99-SS1-032]"
group_label = "Fulfilled"

[[record]]
sequence = "AUGAGGAAGAGAGAGGAUAUCCAAAGGAAAACAUGAGGAUCACCCAUGUAAAAGGUAGGAAAUUGGGAGAAGGCUCAAGAGAGAG [salish99-ss2-065]"
group_label = "Fulfilled"

[[record]]
sequence = "AAACCACAUGAGGAUCACCCAUGUAGAAAUAUGGGAGGAUAUACGAAGACGAAAGUCAAAGUAGAAGGCCUAAAAG [saturn 1]"
group_label = "Fulfilled"

[[record]]
sequence = "GAAAAACAUGAGGAUCACCCAUGUAAGAUAAACACAGGAUAUGCGAAAAGAAACAAAGAAGCAGAAGGGUGAAGAA [Mat - Same State 1 - Tesla mod - 46]"
group_label = "Not fulfilled"

[[record]]
sequence = "AAUAAUUAUAUGGAGGAUAUCCGUAAUAAGACAUGAGGAUCACCCAUGUAAUAAGGGUAAAUAAAGGAGAAGGCCAAGGGUGAAA [JR_SS002_Sub003]"
group_label = "Fulfilled"

[[record]]
sequence = "AGAAUAAAAAGACAGGAUAUCCAAAAUAAAACAUGAGGAUCACCCAUGUAAAAAAAAUAAAAAUGGGAGAAGGGUCAAAAUAAGA [Mat - Same State 2 - JL mod - D63]"
group_label = "Not fulfilled"

[[record]]
sequence = "AAAAAACAUGAGGAUCACCCAUGUCUUCGGACAUGAGGAUAUGUACAGACUUCGGUCUGUACAGAAGGCAUGUAAA [SS1 - 1017]"
group_label = "Fulfilled"

[[record]]
sequence = "AGAAAACAUGAGGAUCACCCAUGUAGGAAUAUGGGAGGAUAUACAGAGACGAAAGUCAGAGUAGAAGGCCUAAGAA [salish99-SS1-088]"
group_label = "Fulfilled"

[[record]]
sequence = "GGAUAACAUGAGGAUCACCCAUGUACAUGGGUACAAGGAUAUGUAAAAUAAAACAAACAAACAGAAGGUGUAAAAA [I'm in a state]"
group_label = "Fulfilled"


* * *

Listing of recorded apparent KD of MS2 coat protein by entry.
- Test system: MS2 coat protein
- test-summary: apparent KD of MS2 coat protein, switch ON state; designed switch direction (-1 OFF switch, 1 ON switch): 1; higher = weaker reporter binding
- stated-conditions: FMN input: 0 or 200 uM; Eterna round: R93 (includes R88 designs)
measure: apparent KD of MS2 coat protein (µM)

[[record]]
sequence = "AACAGACAUGAGGAUCACCCAUGUAGAAUUAUGGGAGGAUAUACAAAGACGAGAGUCAGAGUAGAAGGCCUAGGAG [salish99-ss1-162]"
measure = "apparent KD of MS2 coat protein"
result = 0.0221

[[record]]
sequence = "AACAAUCUAUCUGAGGAUAUCAUUAAAAAGACAUGAGGAUCACCCAUGUAGCAGGAAACUGCAUAUGAGAAGGCAGAUAGAUUGA [SS2: 1123]"
measure = "apparent KD of MS2 coat protein"
result = 0.0125

[[record]]
sequence = "AAAAAUCCAGCGCAGGAUAUCGCAGGGUGCACAUGAGGAUCACCCAUGUGUACCCAAACACCCUGCGAGAAGGGCGUUGGAAAAAA [SameState-I]"
measure = "apparent KD of MS2 coat protein"
result = 0.00966

[[record]]
sequence = "AAAAAACAUGAGGAUCACCCAUGUAAAAAAAACACAGGAUAUCCCUUUUUUAAAUAAAAAGGAGAAGGGUGAAAAA [Nob's Hobby 8 - Jieux - Same State 1]"
measure = "apparent KD of MS2 coat protein"
result = 0.0241

[[record]]
sequence = "AACAAUCUAUCUGAGGAUAUGAUGUCAAAGACAUGAGGAUCACCCAUGUGCAGGAAAACUGCAUAUCAGAAGGCAGAUAGAUUGA [SS2: 1103]"
measure = "apparent KD of MS2 coat protein"
result = 0.0156

[[record]]
sequence = "AAAAAACAUGAGGAUCACCCAUGUGCAAAAUUCGCAGGAUAUUCCUUUUUUAAAUGGGAGGGAGAAGGGUGUAAAA [Nob's Hobby 19 - Jieux - Same State 1]"
measure = "apparent KD of MS2 coat protein"
result = 0.0219


* * *

- System: MS2 coat protein
- test-summary: apparent KD of MS2 coat protein; designed switch direction (-1 OFF switch, 1 ON switch): -1; higher = weaker reporter binding
- stated-conditions: Eterna round: R95; input ligand: microRNA oligo, concentration not stated
Measured apparent KD of MS2 coat protein, listed per entry.
measure: apparent KD of MS2 coat protein (nM)

[[record]]
sequence = "AAUAAGUGAGGAUAUCCAAUAAUAAAUAAAAUAAUAAAUAAGGAGAAGGCACAUGAGGAUCACCCAUGUAAUAA [JMF's solution 2] (puzzle: Exclusion 4)"
unit_label = "nM"
result = 14.8

[[record]]
sequence = "UAUGGGUGUGUGAGGAUAUACGAAGGCAGUGGCCAGUAGAAGGUACAUGAGGAUCACCCAUGUGUCCAAAAGUG [Isonge] (puzzle: Brourd's mod of Exclusion 4)"
unit_label = "nM"
result = 13.9

[[record]]
sequence = "GUCGCUAGAGGAUAUACAAUGGUAUAUGAUCCUAGUGACAUACAUGAGGAUCACCCAUGUAGAAGGCUAGUAAU [Exclusion 2 - 7] (puzzle: Exclusion 2)"
unit_label = "nM"
result = 24.8

[[record]]
sequence = "AAUAAGUGAGGAUAUACGUCUGGACCCGGGAGGGAAAUAAAACAUGAGGAUCACCCAUGUAGAAGGCACAAUAA [Excls2-III] (puzzle: Exclusion 2)"
unit_label = "nM"
result = 13.5

[[record]]
sequence = "CUGUAACAUGAGGAUCACCCAUGUCAGGAUAUCUAUCAUAGCAUCGAAAGAUGCGGGUAGAGAAGGGACUAUCC [ChP Ext 10-04-2015 #8] (puzzle: Exclusion 1)"
unit_label = "nM"
result = 14.5


* * *

- System: MS2 coat protein
- test-summary: apparent KD of MS2 coat protein; designed switch direction (-1 OFF switch, 1 ON switch): -1; higher = weaker reporter binding
- stated-conditions: input ligand: FMN 200 uM
measure: apparent KD of MS2 coat protein (µM)

[[record]]
sequence = "GCGUACUGAGGAUAUACAUGAGGAUCACCCAUGUGAAGAAGAAAGUAGUGAUGGUUGGGUAGAAGGCAGUAUGC [JR_Ex3_Sub064] (Eterna round: R97, puzzle: Exclusion 3)"
result = 0.103

[[record]]
sequence = "CGCGGAUGUAUAUGUCCGCACAUGAGGAUCACCCAUGUAAUAUAAGAUGAUAUUAAACAAAUUUUUGCUUGUCAGUU [Eternabot (L1) Solution 37] (Eterna round: R97, puzzle: Sensor, turn-off variant 1)"
result = 0.031

[[record]]
sequence = "UUAUGAGUAGGAUAUGAGCCAAAAUACAUGAGGAUCACCCAUGUCGGGUUCAUGGAGGGCUCAGAAGGAUUCAAUA [Exclusion 5 - Laarte Mod] (Eterna round: R97, puzzle: Exclusion 5)"
result = 0.105

[[record]]
sequence = "UUAGCGUAAGUAAGGAUAUGCUGGUCUAAUGAUCAGCAGAAGGUACAUGAGGAUCACCCAUGUGGAUUCGUUAU [Mod of JL 10 - Jieux - Brourd's mod of Exclusion 4] (Eterna round: R97, puzzle: Brourd's mod of Exclusion 4)"
result = 0.0358

